system: A. baumannii IL123 (ABΔ3-ARAEcPore)

| MOLECULE | MIC |
| --- | --- |
| Nc1nc(C(NC(=O)N2CCN(CCNC(=O)c3ccc(O)c(O)c3Cl)C(=O)C2=O)C(=O)N[C@H]2Cc3ccc(F)c(C(=O)O)c3OB2O)c(F)s1 (stereo partly drawn) | 32 to 64 µg/mL |
| O=C(O)c1c(F)ccc2c1OB(O)[C@@H](NC(=O)C(NC(=O)N1CCN(CCF)C(=O)C1=O)c1c(F)cc(O)c(O)c1F)C2 (stereo partly drawn) | 2 to 4 µg/mL |
| NCCCN1CCN(C(=O)N[C@@H](C(=O)N[C@H]2Cc3ccc(F)c(C(=O)O)c3OB2O)c2c(F)cc(O)c(O)c2F)C(=O)C1=O (single isomer, unassigned) | 2 to 4 µg/mL |
| NCCCN1CCN(C(=O)N[C@H](C(=O)N[C@H]2Cc3ccc(F)c(C(=O)O)c3OB2O)c2ccc(O)c(O)c2Cl)C(=O)C1=O (single isomer, unassigned) | 32 to 64 µg/mL |
| O=C(Nc1ccc(O)c(O)c1Cl)NC(C(=O)N[C@H]1Cc2ccc(F)c(C(=O)O)c2OB1O)c1ncc(O)cc1F (stereo partly drawn) | 32 to 64 µg/mL |
| O=C(O)c1c(F)ccc2c1OB(O)[C@@H](NC(=O)[C@H](NC(=O)N1CCNC1=O)c1c(F)cc(O)c(O)c1Cl)C2 (single isomer, unassigned) | 2 to 4 µg/mL |
